// data source = patent US20050244819A1

Kindly supply the reported IC50 values for the records listed here.
molecular target: wild-type HIV protease (Human immunodeficiency virus type 1 group M subtype B)
Answers are plain numbers, in µM.

Cc1c(O)cccc1C(=O)N[C@@H](CSc1ccccc1)[C@H](O)CN1C[C@H]2CCCC[C@H]2C[C@H]1C(=O)NC(C)(C)C [NFV, nelfinavir]	48.4

Notebook: CC(C)CN(C[C@@H](O)[C@H](Cc1ccccc1)NC(=O)O[C@H]1CCOC1)S(=O)(=O)c1ccc(N)cc1 [APV, amprenavir] , IC50 read as 53.4

----------
Kindly supply the reported pIC50 values for the records listed here.
target: HIV protease precursor TF-PR^WT (Human immunodeficiency virus type 1 group M subtype B, UniProt P12497, L434F); construct: Met-Gly (my reading of primer TF-F) + native transframe region (TFP 8 aa + p6pol 48 aa = 56 aa directly upstream of the protease in Gag-Pol); removed by autoprocessing (N, cleaved yes); test: cell-based
pIC50: −log10 of the molar value.

Cc1c(O)cccc1C(=O)N[C@@H](CSc1ccccc1)[C@H](O)CN1C[C@H]2CCCC[C@H]2C[C@H]1C(=O)NC(C)(C)C [NFV, nelfinavir]	5.10 to 5.80

Notebook: CC(C)CN(C[C@@H](O)[C@H](Cc1ccccc1)NC(=O)O[C@H]1CCOC1)S(=O)(=O)c1ccc(N)cc1 [APV, amprenavir] , pIC50 read as 5.10 to 5.80
